- System: Phytophthora infestans
- Type: in vivo
- EXPERIMENTAL_PARAMETERS: 300 ppm, greenhouse foliar spray, tomato plants
Measured Foliar Application (Percent Control) Tomato Late Blight of individual entries
Provide the reading as a plain figure in %.

Look over these answered cases.
- COMPOUND: "CC(C)OC(=O)NNc1ccc(Oc2cccc(C(F)(F)F)c2)cc1"
  RESULT: 12
- COMPOUND: "CCC(=NNc1ccc(Oc2cccc(C(F)(F)F)c2)c(F)c1)[N+](=O)[O-]"
  RESULT: 0
- COMPOUND: "CC(C)OC(=O)NNc1ccc(-c2cccc(C(F)(F)F)c2)c(F)c1"
  RESULT: 0
- COMPOUND: "CC(C)OC(=O)NN(C(=O)C(F)(F)F)c1ccc(Oc2cccc(Cl)c2)nc1"
  RESULT: 0
- COMPOUND: "CCC(C)OC(=O)NN(C(=O)C(F)(F)F)c1ccc(Sc2ccccc2)cc1 (stereo not drawn)"
  RESULT: 0

Turning now to a further record.
Query string: Data request, read-out Foliar Application (Percent Control) Tomato Late Blight, for CC(=O)NNc1ccc(Oc2cccc(C(F)(F)F)c2)c(F)c1
Result string: 0

###

- Tested on: Helminthosporium sativum
- METHOD: Foliar spray for the control of barley blotch
- Type: in vivo
- EXPERIMENTAL_PARAMETERS: Helminthosporium, greenhouse foliar spray, barley plants, read-out: Foliar Application (Percent Control) Barley Blotch
Measured pest or weed control at 300 ppm of individual entries
Provide the reading as a plain figure in %.

Look over these answered cases.
- SMILES_STRING: "CCC(=NNc1ccc(Oc2cccc(C(F)(F)F)c2)c(F)c1)[N+](=O)[O-]"
  UNITS: "%"
  RESULT: 0
- SMILES_STRING: "CC(C)OC(=O)NN(C(=O)C(F)(F)F)c1ccc(Oc2cccc(C(F)(F)F)c2)cc1"
  UNITS: "%"
  RESULT: 99
- SMILES_STRING: "CC(C)OC(=O)N=Nc1ccc(Oc2cccc(C(F)(F)F)c2)cc1"
  UNITS: "%"
  RESULT: 97
- SMILES_STRING: "CC(C)OC(=O)NN(C)c1ccc(Oc2cccc(C(F)(F)F)c2)cc1"
  UNITS: "%"
  RESULT: 0
- SMILES_STRING: "CC(C)OC(=O)NNc1ccc(Oc2cccc(C(F)(F)F)c2)cc1"
  UNITS: "%"
  RESULT: 97

Query string: Data request, read-out pest or weed control at 300 ppm, for CC(C)OC(=O)N1CN(C)CN1c1ccc(Oc2cccc(C(F)(F)F)c2)c(F)c1
Result string: 90

Query string: Ok, now CC(C)OC(=O)NNc1ccc(-c2cccc(C(F)(F)F)c2)c(F)c1
Result string: 98

Query string: Ok, now CC(=O)NNc1ccc(Oc2cccc(C(F)(F)F)c2)c(F)c1
Result string: 80

###

Measured Drench Application (Percent Control) Cucumber Powdery Mildew of individual entries
- Test system: Cucumber Powdery Mildew
- METHOD: Soil drench for the control of cucumber powdery mildew
- Assay type: in vivo
- EXPERIMENTAL_PARAMETERS: 300 ppm, greenhouse soil drench
Provide the reading as a plain figure in %.

Look over these answered cases.
- COMPOUND: "CC(C)OC(=O)NNc1ccc(Oc2cccc(C(F)(F)F)c2)cc1 [Compound 1]"
  UNITS: "%"
  RESULT: 0
- COMPOUND: "CC(C)OC(=O)N=Nc1ccc(Oc2cccc(C(F)(F)F)c2)cc1 [Compound 9]"
  UNITS: "%"
  RESULT: 0
- COMPOUND: "COC(=O)NNc1ccc(Oc2cccnc2)cc1 [Compound 5]"
  UNITS: "%"
  RESULT: 0
- COMPOUND: "CC(C)OC(=O)NN(C(=O)C(F)(F)F)c1ccc(Oc2cccc(C(F)(F)F)c2)cc1 [Compound 2]"
  UNITS: "%"
  RESULT: 0
- COMPOUND: "CC(C)OC(=O)NN(C)c1ccc(Oc2cccc(C(F)(F)F)c2)cc1 [Compound 3]"
  UNITS: "%"
  RESULT: 0

Query string: Data request, read-out Drench Application (Percent Control) Cucumber Powdery Mildew, for CCC(C)OC(=O)NN(C(=O)C(F)(F)F)c1ccc(Sc2ccccc2)cc1 (stereo not shown) [Compound 4]
Result string: 0

Query string: Ok, now CC(C)OC(=O)NN(C(=O)C(F)(F)F)c1ccc(Oc2cccc(Cl)c2)nc1 [Compound 6]
Result string: 0

###

- Test system: Pythium ultimum
- METHOD: microbe, parasite or virus in culture
- Assay type: cell-based
- EXPERIMENTAL_PARAMETERS: Globisporangium ultimum, 48 h, read-out: Percent Control Pythium ultimum
PROPERTY_MEASURED: inhibition of growth at 100 ppm (%)
Provide the reading as a plain figure in %.

- SMILES_STRING: "CC(C)OC(=O)NN(C(=O)C(F)(F)F)c1ccc(Oc2cccc(C(F)(F)F)c2)cc1"
  inhibition of growth at 100 ppm / %: 100

Query string: Data request, read-out inhibition of growth at 100 ppm, for CC(C)OC(=O)N=Nc1ccc(Oc2cccc(C(F)(F)F)c2)cc1
Result string: 0

Query string: Ok, now CC(C)OC(=O)N1CN(C)CN1c1ccc(Oc2cccc(C(F)(F)F)c2)c(F)c1
Result string: 0

Query string: Ok, now CC(C)OC(=O)NNc1ccc(Oc2cccc(C(F)(F)F)c2)cc1
Result string: 100

###

- System: Phytophthora infestans
- METHOD: microbe, parasite or virus in culture
- Type: cell-based
- EXPERIMENTAL_PARAMETERS: Phytophthora infestans, 48 h, read-out: Percent Control Phytophthora infestants
PROPERTY_MEASURED: inhibition of growth at 100 ppm (%)
Provide the reading as a plain figure in %.

- SMILES_STRING: "CC(C)OC(=O)NN(C(=O)C(F)(F)F)c1ccc(Oc2cccc(C(F)(F)F)c2)cc1"
  inhibition of growth at 100 ppm (%): 100
- SMILES_STRING: "CC(C)OC(=O)NNc1ccc(Oc2cccc(C(F)(F)F)c2)cc1"
  inhibition of growth at 100 ppm (%): 100
- SMILES_STRING: "CC(C)OC(=O)N1CN(C)CN1c1ccc(Oc2cccc(C(F)(F)F)c2)c(F)c1"
  inhibition of growth at 100 ppm (%): 0

Turning now to a further record.
Query string: Data request, read-out inhibition of growth at 100 ppm, for CC(C)OC(=O)N=Nc1ccc(Oc2cccc(C(F)(F)F)c2)cc1
Result string: 9

Data credit: patent US7045512B2
